organism: Rattus norvegicus; experiment: DrugMatrix - Regimen: Daily Repeat; assay type: toxicity, organism-based, Sprague-Dawley; set-up: regimen Daily Repeat, gender Male, age 6-8 weeks; conditions: in vivo, po, 0 mg/kg, 120 h, tissue Plasma, route oral GAVAGE, dose level Control, time 5 day, vehicle .5 % CMC
Reported endpoint: BLOOD UREA NITROGEN (mg/dL)
Express your answer in mg/dL, writing the number without its unit.

Field request: BLOOD UREA NITROGEN | item: CN1C(=O)CN=C(c2ccccc2)c2cc([N+](=O)[O-])ccc21 [NIMETAZEPAM] 16.67

State the recorded BLOOD UREA NITROGEN for this entry: C[C@H]1[C@H](NC(=O)/C(=N\OC(C)(C)C(=O)O)c2csc(N)n2)C(=O)N1S(=O)(=O)O [AZTREONAM] 20

Fill in the blank: the reported BLOOD UREA NITROGEN of CCn1cc(C(=O)O)c(=O)c2cc(F)c(N3CCNC(C)C3)c(F)c21 (centres undefined) [LOMEFLOXACIN] is ____. 15

Which BLOOD UREA NITROGEN value is on record for CN1CCN(C2=Nc3cc(Cl)ccc3Nc3ccccc32)CC1 [CLOZAPINE] ? 16

---

species on record: Rattus norvegicus; assay: DrugMatrix - Regimen: Daily Repeat; assay type: toxicity, organism-based, Sprague-Dawley; design: regimen Daily Repeat, gender Male, age 6-8 weeks; conditions: in vivo, po, 0 mg/kg, 120 h, tissue Blood, route oral GAVAGE, dose level Control, time 5 day, vehicle .5 % CMC
Reported endpoint: BASOPHIL (%)
Write down the numeric answer in % and omit the unit.

Which BASOPHIL value belongs to C[C@]12CC[C@@H]3c4ccc(O)cc4CC[C@H]3[C@@H]1C[C@@H](O)[C@@H]2O ? 0

Find the recorded BASOPHIL belonging to CCCNC(=O)NS(=O)(=O)c1ccc(Cl)cc1 [CHLORPROPAMIDE] and report it. 0

Which value of BASOPHIL has been reported for CN1CCN(C2=Nc3cc(Cl)ccc3Nc3ccccc32)CC1 in the records? 0

GET /values?readout=BASOPHIL&item= CN1C(=O)CN=C(c2ccccc2)c2cc([N+](=O)[O-])ccc21 1.35

Bench note: what BASOPHIL did CCOc1nc2cccc(C(=O)O)c2n1Cc1ccc(-c2ccccc2-c2nnn[nH]2)cc1 show? 0

Please give the measured BASOPHIL for this molecule: NC(=O)N1c2ccccc2CC(=O)c2ccccc21 [OXCARBAZEPINE] 0

Which BASOPHIL is listed for CCC1=C(C)CN(C(=O)NCCc2ccc(S(=O)(=O)NC(=O)N[C@H]3CC[C@H](C)CC3)cc2)C1=O [GLIMEPIRIDE] ? 0

What value of BASOPHIL has been reported for the following molecule? C[C@@](Cc1ccc(O)c(O)c1)(NN)C(=O)O.O 0

What value of BASOPHIL has been recorded for this entry: CCCCC1=NC2(CCCC2)C(=O)N1Cc1ccc(-c2ccccc2-c2nnn[nH]2)cc1 0.17

---

Assign LIPASE to each entry below.
species: Rattus norvegicus; experiment: DrugMatrix - Regimen: Daily Repeat; type: toxicity, organism-based, Sprague-Dawley; set-up: regimen Daily Repeat, gender Male, age 6-8 weeks; details: in vivo, po, 0 mg/kg, 72 h, tissue Plasma, route oral GAVAGE, dose level Control, time 3 day, vehicle .5 % CMC
State the answer as a number, implicitly in u/L.

Which measured LIPASE value corresponds to CCOc1nc2cccc(C(=O)O)c2n1Cc1ccc(-c2ccccc2-c2nnn[nH]2)cc1 ? 9.83

Which LIPASE value is on record for C[C@@H]1O[C@@H](O[C@H]2C[C@@H](O)[C@]3(CO)[C@H]4[C@H](O)C[C@]5(C)[C@@H](C6=CC(=O)OC6)CC[C@]5(O)[C@@H]4CC[C@]3(O)C2)[C@H](O)[C@H](O)[C@H]1O [OUABAIN] ? 8

Request the reported LIPASE associated with C[C@@](Cc1ccc(O)c(O)c1)(NN)C(=O)O.O [CARBIDOPA] 9.5

# lookup: LIPASE of NC(=O)N1c2ccccc2CC(=O)c2ccccc21 [OXCARBAZEPINE] 9

Record request: LIPASE value, item COc1ccccc1[N+](=O)[O-] [2-NITROANISOLE] 10

I have this compound here, CN(C)C(=O)C(CCN1CCC(O)(c2ccc(Cl)cc2)CC1)(c1ccccc1)c1ccccc1 [LOPERAMIDE] , and I need its recorded LIPASE. 10

Dear colleague, I am looking for the recorded LIPASE of the following compound: C[C@]12CC[C@@H]3c4ccc(O)cc4CC[C@H]3[C@@H]1C[C@@H](O)[C@@H]2O [ESTRIOL] 10.33

Given C[C@H]1[C@H](NC(=O)/C(=N\OC(C)(C)C(=O)O)c2csc(N)n2)C(=O)N1S(=O)(=O)O [AZTREONAM] , state its recorded LIPASE. 9.5

For the compound COc1cc(OC)c(C(=O)CCCN2CCCC2)c(OC)c1 [BUFLOMEDIL] , what LIPASE is on record? 9.17

Please report the recorded LIPASE for CCCCC1=NC2(CCCC2)C(=O)N1Cc1ccc(-c2ccccc2-c2nnn[nH]2)cc1 [IRBESARTAN] . 9.33

Which measured LIPASE value corresponds to CCC1=C(C)CN(C(=O)NCCc2ccc(S(=O)(=O)NC(=O)N[C@H]3CC[C@H](C)CC3)cc2)C1=O [GLIMEPIRIDE] ? 10

---

species: Rattus norvegicus; assay: DrugMatrix - Regimen: Daily Repeat; assay type: toxicity, organism-based, Sprague-Dawley; parameters: regimen Daily Repeat, gender Male, age 6-8 weeks; conditions: in vivo, po, 2 mg/kg, 120 h, tissue Blood, route oral GAVAGE, dose level High, time 5 day, vehicle 100 % SALINE
Reported endpoint: ABSOLUTE MONOCYTE (cells/µL)
Write down the numeric answer in cells/µL and omit the unit.

May I ask what ABSOLUTE MONOCYTE has been recorded for COc1cccc2c1C(=O)c1c(O)c3c(c(O)c1C2=O)C[C@@](O)(C(C)=O)C[C@@H]3O[C@H]1C[C@H](N)[C@H](O)[C@H](C)O1 ? 140

---

species: Rattus norvegicus; type: toxicity, organism-based, Sprague-Dawley; details: in vivo, po, 2 mg/kg, 24 h, tissue Blood, route oral GAVAGE, dose level High, time 1 day, vehicle 100 % SALINE
Description: DrugMatrix - Regimen: Single
Reported endpoint: ABSOLUTE EOSINOPHIL (cells/µL)
Kindly provide the numeric value in cells/µL only, without the unit symbol.

I have this compound here, COc1cccc2c1C(=O)c1c(O)c3c(c(O)c1C2=O)C[C@@](O)(C(C)=O)C[C@@H]3O[C@H]1C[C@H](N)[C@H](O)[C@H](C)O1 , and I need its recorded ABSOLUTE EOSINOPHIL. 60

---

Give MEAN CORPUSCULAR HEMOGLOBIN for every item shown.
organism: Rattus norvegicus; experiment: DrugMatrix - Regimen: Daily Repeat; type: toxicity, organism-based, Sprague-Dawley; set-up: regimen Daily Repeat, gender Male, age 6-8 weeks; settings: in vivo, iv, 0 mg/kg, 120 h, tissue Blood, dose level Control, time 5 day, vehicle 100 % SALINE
Kindly answer with a numeric value in pg, unit omitted.

# query: MEAN CORPUSCULAR HEMOGLOBIN of entry N=C(N)c1ccc(OCCCCCOc2ccc(C(=N)N)cc2)cc1 23.08

Given the entry C[N+](C)(C)CCOC(=O)CCC(=O)OCC[N+](C)(C)C.[Cl-].[Cl-] [SUCCINYLCHOLINE CHLORIDE] , report its measured MEAN CORPUSCULAR HEMOGLOBIN. 23.08

Endpoint output: MEAN CORPUSCULAR HEMOGLOBIN of COc1cccc2c1C(=O)c1c(O)c3c(c(O)c1C2=O)C[C@@](O)(C(C)=O)C[C@@H]3O[C@H]1C[C@H](N)[C@H](O)[C@H](C)O1 . Value? 24.32

What MEAN CORPUSCULAR HEMOGLOBIN value was documented for this molecule, O=c1[nH]c(=O)n([C@H]2C[C@H](O)[C@@H](CO)O2)cc1F ? 24.92

What MEAN CORPUSCULAR HEMOGLOBIN value was documented for this molecule, O=C(O)P(=O)(O)O ? 23.87

---

organism: Rattus norvegicus; assay: DrugMatrix - Regimen: Daily Repeat; assay type: toxicity, organism-based, Sprague-Dawley; design: regimen Daily Repeat, gender Male, age 6-8 weeks; details: in vivo, iv, 0 mg/kg, 120 h, tissue Plasma, dose level Control, time 5 day, vehicle 100 % SALINE
Reported endpoint: ASPARTATE AMINOTRANSFERASE

Which value of ASPARTATE AMINOTRANSFERASE has been reported for COc1cccc2c1C(=O)c1c(O)c3c(c(O)c1C2=O)C[C@@](O)(C(C)=O)C[C@@H]3O[C@H]1C[C@H](N)[C@H](O)[C@H](C)O1 in the records? 81.67 u/L

Find the recorded ASPARTATE AMINOTRANSFERASE belonging to O=C(O)P(=O)(O)O and report it. 95.17 u/L

Which ASPARTATE AMINOTRANSFERASE is listed for C[N+](C)(C)CCOC(=O)CCC(=O)OCC[N+](C)(C)C.[Cl-].[Cl-] [SUCCINYLCHOLINE CHLORIDE] ? 86.17 u/L

Which ASPARTATE AMINOTRANSFERASE is reported for this compound? O=c1[nH]c(=O)n([C@H]2C[C@H](O)[C@@H](CO)O2)cc1F 105.33 u/L

Given the compound N=C(N)c1ccc(OCCCCCOc2ccc(C(=N)N)cc2)cc1 , what is its reported ASPARTATE AMINOTRANSFERASE? 86.17 u/L

Where do the numbers come from? From ChEMBL document CHEMBL3885881.
